target: Cyclophilin A (Homo sapiens); assay: Cyclophilin inhibition binding, competitive ELISA (Cyclophilin A); conditions: human recombinant cyclophilin, read-out: CypA EC50
Sequence (P62937 whole entry): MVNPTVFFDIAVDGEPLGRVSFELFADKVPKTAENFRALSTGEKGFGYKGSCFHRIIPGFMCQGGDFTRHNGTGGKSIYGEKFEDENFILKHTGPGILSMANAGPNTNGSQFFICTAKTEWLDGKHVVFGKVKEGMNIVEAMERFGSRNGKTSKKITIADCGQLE
REPORTED METRIC: EC50 (nM)
Answer with a number only, understood to be in nM.

Input: Give EC50 (Cyclophilin A (Homo sapiens)) of the following compound: `C/C=C/C[C@@H](C)[C@@H](O)[C@H]1C(=O)N[C@@H](CC)C(=O)N(C)[C@H](OCCN2CCC2)C(=O)N(C)[C@@H](CC(C)C)C(=O)N[C@@H](C(C)C)C(=O)N(C)[C@@H](CC(C)C)C(=O)N[C@@H](C)C(=O)N[C@H](C)C(=O)N(C)[C@@H](CC(C)C)C(=O)N(C)[C@@H](CC(C)C)C(=O)N(C)[C@@H](C(C)C)C(=O)N1C`
Output: 66

Input: Report EC50 for `C/C=C/C[C@@H](C)[C@@H](O)[C@H]1C(=O)N[C@@H](CC)C(=O)N(C)[C@H](OCCN(C)C(C)C)C(=O)N(C)[C@@H](CC(C)C)C(=O)N[C@@H](C(C)C)C(=O)N(C)[C@@H](CC(C)C)C(=O)N[C@@H](C)C(=O)N[C@H](C)C(=O)N(C)[C@@H](CC(C)C)C(=O)N(C)[C@@H](CC(C)C)C(=O)N(C)[C@@H](C(C)C)C(=O)N1C` tested on Cyclophilin A (Homo sapiens).
Output: 202

Input: Query EC50 on Cyclophilin A (Homo sapiens) for `C/C=C/C[C@@H](C)[C@@H](O)[C@H]1C(=O)N[C@@H](CC)C(=O)N(C)[C@H](OCCN2CCCCC2)C(=O)N(C)[C@@H](CC(C)C)C(=O)N[C@@H](C(C)C)C(=O)N(C)[C@@H](CC(C)C)C(=O)N[C@@H](C)C(=O)N[C@H](C)C(=O)N(C)[C@@H](CC(C)C)C(=O)N(C)[C@@H](CC(C)C)C(=O)N(C)[C@@H](C(C)C)C(=O)N1C`
Output: 118

Input: Identify the measured EC50 of `C/C=C/C[C@@H](C)[C@@H](O)[C@H]1C(=O)N[C@@H](CC)C(=O)N(C)[C@H](OCCCN)C(=O)N(C)[C@@H](CC(C)C)C(=O)N[C@@H](C(C)C)C(=O)N(C)[C@@H](CC(C)C)C(=O)N[C@@H](C)C(=O)N[C@H](C)C(=O)N(C)[C@@H](CC(C)C)C(=O)N(C)[C@@H](CC(C)C)C(=O)N(C)[C@@H](C(C)C)C(=O)N1C` for Cyclophilin A (Homo sapiens).
Output: 14

Input: Recall the recorded EC50 for `C/C=C/C[C@@H](C)[C@@H](O)[C@H]1C(=O)N[C@@H](CC)C(=O)N(C)[C@H](OCCN2CCCC2)C(=O)N(C)[C@@H](CC(C)C)C(=O)N[C@@H](C(C)C)C(=O)N(C)[C@@H](CC(C)C)C(=O)N[C@@H](C)C(=O)N[C@H](C)C(=O)N(C)[C@@H](CC(C)C)C(=O)N(C)[C@@H](CC(C)C)C(=O)N(C)[C@@H](C(C)C)C(=O)N1C` with Cyclophilin A (Homo sapiens) and state it.
Output: 12

Source: patent US20220079139A1
